The reported numbers originate from patent US20250152564A1.

# Tested on: BaF3 FGFR2-BICC1 V564F cells
# EXPERIMENT_SUMMARY: CellTiter-Glo cell proliferation inhibition, BaF3 FGFR2-BICC1 V564F
# Format: cell-based
# RUN_PARAMETERS: Mus musculus, 72 h, read-out: BaF3 FGFR2-BICC1 V564F inhibitory activity IC50
MEASUREMENT_LABEL: IC50 (nM)

COMPOUND | RECORDED_MEASUREMENT
C=CC(=O)N1CC[C@H](n2nc(C#Cc3cc4ncn(CC)c4cc3F)c3c(N)ncc(C(=O)CC)c32)C1 [Example 60] | 1.7
C=CC(=O)N1CC[C@H](n2nc(C#Cc3ccc4oc(C5CC5)nc4c3)c3c(N)ncc(C(C)=O)c32)C1 [Example 70] | 2.6
C=CC(=O)N1CC[C@H](n2nc(C#Cc3cc4ncn(C)c4cc3F)c3c(N)ncc(C(C)=O)c32)C1 [Example 8] | 0.4

1: C=CC(=O)N1CC[C@H](n2nc(C#Cc3cc4ncn(C5CC5)c4cc3Cl)c3c(N)ncc(C(=O)C4CC4)c32)C1 [Example 46]
2: C=CC(=O)N1CC[C@H](n2nc(C#Cc3ccc4c(c3)ncn4C3CC3)c3c(N)ncc(C(=O)C4CC4)c32)C1 [Example 38]
For this pair, 1 and 2 , which shows a numerically higher IC50? Give the chosen item's label as your response.
2
(2: 1.9 nM, 1: 0.2 nM)

A: C=CC(=O)N1CC[C@H](n2nc(C#Cc3cc4ncn(C)c4cc3Cl)c3c(N)ncc(C(=O)C4CC4)c32)C1 [Example 68]
B: C=CC(=O)N1CC[C@H](n2nc(C#Cc3ccc4c(c3)ncn4C3CC3)c3c(N)ncc(C(C)=O)c32)C1 [Example 37]
Hi! Which is lower in terms of IC50, the first one A or the second one B ? Selection: enter the item's label.
A
